# Assayed system: recombinant renin in human plasma (Homo sapiens, UniProt P00797)
# Sequence (P00797 67-406): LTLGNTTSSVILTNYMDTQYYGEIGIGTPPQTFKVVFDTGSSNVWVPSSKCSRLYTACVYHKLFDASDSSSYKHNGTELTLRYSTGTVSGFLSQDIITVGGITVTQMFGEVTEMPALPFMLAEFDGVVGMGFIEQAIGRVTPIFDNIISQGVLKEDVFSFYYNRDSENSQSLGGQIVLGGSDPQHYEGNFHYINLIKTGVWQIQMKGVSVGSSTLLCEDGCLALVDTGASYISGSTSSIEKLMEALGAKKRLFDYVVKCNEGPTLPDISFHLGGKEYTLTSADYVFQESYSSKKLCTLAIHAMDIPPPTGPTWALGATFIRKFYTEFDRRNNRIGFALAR
# Assay text: Inhibition of renin in human plasma (QFRET, plasma)
# Experimental setup: human EDTA plasma with 1 nM recombinant renin added; 37° C., 1 hour
Please provide measured IC50 for the entries that follow.
One number for each entry, in nM.

Consider the following illustrative entries.
So, COCC(F)(F)COCc1ccc([C@@]2(O)CCNC[C@@H]2c2ccc(-c3ccccc3CCNC(C)=O)cc2C)cc1 [Structure 121] ? Its IC50 was 0.32

So, `COC(=O)NCCc1ccccc1-c1onc([C@H]2CNCC[C@]2(O)c2ccc(F)c(F)c2)c1C(C)=O` ? Its IC50 was 93

So, COCCCc1ccccc1-c1ccc([C@H]2CNCC[C@]2(OCC(O)CO)c2ccc(F)c(F)c2)c(C)c1 (mixture of isomers) ? Its IC50 was 2020

So, `COC[C@H](C)COCc1ccc([C@@]2(O)CCNC[C@@H]2c2ccc(-c3ccccc3CCNC(=O)CO)cc2C)cc1` ? Its IC50 was 0.57

So, `CC(=O)NCCc1ccccc1-c1onc([C@H]2CNCC[C@]2(O)c2ccc(F)c(F)c2)c1C(C)=O` ? Its IC50 was 4.2

So, `COC[C@H](C)COCc1ccc([C@@]2(O)CCNC[C@@H]2c2cnc(-c3ccccc3CCNC(C)=O)cc2C)cc1` ? Its IC50 was 3.6

So, Cc1cc(-c2ccccc2CCNC(=O)C2CC2)ccc1[C@H]1CNCC[C@@H]1c1cc(F)cc(F)c1 (racemic) ? Its IC50 was 130

So, `CC(=O)NCCc1ccccc1-c1ccc([C@@H]2CNCC[C@H]2c2ccn(C)c(=O)c2)c(Cl)c1` ? Its IC50 was 1350

So, `CC(=O)NCCc1ccccc1-c1onc([C@H]2CNCC[C@]2(OC(N)=O)c2ccc(F)c(F)c2)c1Br` ? Its IC50 was 0.55

So, `CC(=O)NCCc1ccccc1-c1onc([C@H]2CNCC[C@]2(F)c2ccc(F)c(F)c2)c1Br` ? Its IC50 was 0.44

Could you tell me IC50 for each of these molecules? They are listed below.
1. Cc1cc(-c2ccccc2CCNC(=O)c2cnn(C)c2)ccc1[C@H]1CNCC[C@@H]1c1cc(F)cc(F)c1 (racemic)
2. CC(=O)NCCc1ccccc1-c1onc([C@H]2CNCC[C@@H]2c2ccc(OCCOc3c(Cl)cc(C)cc3Cl)cc2)c1C(C)O (stereo partly shown)
3. COCCCc1ccccc1-c1ccc([C@H]2CNCC[C@@H]2c2cccc3nc[nH]c23)c(Cl)c1 (racemic)
4. CC(=O)NCCc1ccccc1-c1onc([C@H]2CN[C@@H](C)C[C@@H]2c2ccc(F)c(F)c2)c1Br
5. O[C@]1(c2ccc(F)c(F)c2)CCNC[C@@H]1c1onc(-c2cccc3ccccc23)c1Br
6. COCC(F)(F)COCc1ccc([C@@]2(O)CCNC[C@@H]2c2ccc(-c3ccccc3CCNC(C)=O)cc2C)cc1 (racemic) [Structure 55]

Reply text:
1. 1010
2. 1.2
3. 2060
4. 2.8
5. 4.7
6. 0.95
